assay.system: UniProtKB P21453
Sequence (P21453 whole entry): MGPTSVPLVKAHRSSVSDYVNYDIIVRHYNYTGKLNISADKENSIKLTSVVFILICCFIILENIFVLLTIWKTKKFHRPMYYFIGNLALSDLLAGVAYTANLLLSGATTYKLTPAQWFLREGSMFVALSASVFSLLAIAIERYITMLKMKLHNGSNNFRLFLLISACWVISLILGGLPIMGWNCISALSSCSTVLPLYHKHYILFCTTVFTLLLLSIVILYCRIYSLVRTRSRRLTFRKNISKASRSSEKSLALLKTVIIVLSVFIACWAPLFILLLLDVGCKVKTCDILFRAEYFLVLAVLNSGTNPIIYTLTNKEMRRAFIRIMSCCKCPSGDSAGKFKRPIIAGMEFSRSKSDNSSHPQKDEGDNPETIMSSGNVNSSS
test.method.notes: Calcium mobilization assay (FLIPR), HTC cells expressing Edg 1
measurement.context: inhibition
pIC50: −log10 of the molar value.
reported.metric: pIC50

O=C(CC(=O)C(F)(F)F)Nc1cc(-c2ccc(Cl)c(Cl)c2)n[nH]1 [Compound 103]    < 4.70

Now let's try a different one.
Input: Give recorded pIC50. O=C1NN=C(c2ccccc2)C(c2c[nH]c3ccccc23)N1 (centres unmarked) [Compound 121]
Output: < 4.70

###

The following molecules are listed with their measured pIC50 values.
assay.system: Edg-8 (Homo sapiens)
Sequence (Q9H228 whole entry): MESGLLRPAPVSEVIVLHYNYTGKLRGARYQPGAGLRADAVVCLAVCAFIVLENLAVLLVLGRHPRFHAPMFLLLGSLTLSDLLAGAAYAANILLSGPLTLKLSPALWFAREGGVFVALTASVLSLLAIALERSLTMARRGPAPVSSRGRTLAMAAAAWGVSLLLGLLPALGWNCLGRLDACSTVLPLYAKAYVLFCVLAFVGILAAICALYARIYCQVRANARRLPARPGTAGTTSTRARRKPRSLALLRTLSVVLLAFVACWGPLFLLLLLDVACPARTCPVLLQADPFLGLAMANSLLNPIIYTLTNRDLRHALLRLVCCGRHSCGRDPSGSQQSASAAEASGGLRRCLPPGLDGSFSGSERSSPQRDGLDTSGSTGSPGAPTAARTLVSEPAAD
test.method.notes: Calcium mobilization assay (FLIPR), HTC cells expressing Edg 8
measurement.context: inhibition
pIC50: −log10 of the molar value.

O=C1NN=C(c2ccccc2)C(c2c[nH]c3ccccc23)N1 (centres unmarked)    < 4.70

Consider the additional molecule presented here.
Input: Look up and report measured pIC50 for this entry: O=C(CC(=O)C(F)(F)F)Nc1cc(-c2ccc(Cl)c(Cl)c2)n[nH]1
Output: < 4.70

###

assay.system: Edg-2 (Homo sapiens, UniProt Q92633)
Sequence (Q92633 whole entry): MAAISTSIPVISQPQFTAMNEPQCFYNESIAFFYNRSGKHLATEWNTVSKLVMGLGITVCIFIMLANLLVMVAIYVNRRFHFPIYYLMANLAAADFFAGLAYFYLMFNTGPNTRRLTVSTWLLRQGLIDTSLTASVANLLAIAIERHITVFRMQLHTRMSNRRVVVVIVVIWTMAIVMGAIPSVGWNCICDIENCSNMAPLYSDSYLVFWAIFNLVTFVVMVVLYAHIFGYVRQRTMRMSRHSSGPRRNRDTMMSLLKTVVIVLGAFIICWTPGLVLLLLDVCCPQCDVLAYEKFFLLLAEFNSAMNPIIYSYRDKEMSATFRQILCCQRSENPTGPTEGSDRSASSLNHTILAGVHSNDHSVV
test.method.notes: Calcium mobilization assay (FLIPR), HTC cells expressing Edg 2
measurement.context: agonist
reported.metric: EC50

Worked examples, 2 compounds total:
FC(F)(F)c1ccc2nnc(-c3c(Cl)cccc3Cl)n2c1    > 25 µM
FC(F)(F)c1ccc2nnc(-c3cccc(Cl)c3Cl)n2c1    > 25 µM

// below: EC50 requested for another compound
Input: Specify reported EC50 for the compound shown: COc1cc2c(cc1OC)C(c1c(Cl)cccc1Cl)NC(=O)C2 (stereo not drawn)
Output: > 25 µM

###

assay.system: human Edg-4 receptor (Homo sapiens, UniProt Q9HBW0)
Construct: IC50 Edg-4; other: agonist, calcium mobilization; potency relative to compound 101; calcium response (agonist)
Sequence (Q9HBW0 1-340 limits assumed): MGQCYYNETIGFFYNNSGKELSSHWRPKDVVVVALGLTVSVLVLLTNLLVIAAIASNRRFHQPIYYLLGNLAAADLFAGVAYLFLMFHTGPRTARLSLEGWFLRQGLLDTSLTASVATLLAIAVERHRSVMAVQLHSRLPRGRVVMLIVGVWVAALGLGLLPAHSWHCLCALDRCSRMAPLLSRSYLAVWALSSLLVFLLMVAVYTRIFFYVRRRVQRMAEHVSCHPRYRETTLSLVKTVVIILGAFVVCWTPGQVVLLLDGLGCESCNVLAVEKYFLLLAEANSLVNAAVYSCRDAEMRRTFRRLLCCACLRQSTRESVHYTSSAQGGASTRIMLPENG
test.method.notes: Calcium mobilization assay (FLIPR), HTC rat hepatoma cells transfected with human Edg-4
measurement.context: agonist, calcium mobilization
pEC50: −log10 of the molar value.
reported.metric: pEC50

COc1cc2c(cc1OC)C(c1c(Cl)cccc1Cl)NC(=O)C2 (stereo not drawn) [Compound 125]    5.28

P. FC(F)(F)c1ccc2nnc(-c3c(Cl)cccc3Cl)n2c1 [Compound 131]
Q. FC(F)(F)c1ccc2nnc(-c3cccc(Cl)c3Cl)n2c1 [Compound 129]
Input: Between the two listed entries P and Q , which has its pEC50 at the higher number? Choose, then provide that item's label.
Output: Q
(Q: 5.27, P: 5.00)

###

This section presents compounds with their documented EC50 values.
assay.system: UniProt P21453
test.method.notes: Calcium mobilization assay (FLIPR), HTC cells expressing Edg 1
measurement.context: agonist

Input: Answer with the recorded EC50 for the compound listed here: FC(F)(F)c1ccc2nnc(-c3cccc(Cl)c3Cl)n2c1
Output: > 25 µM

Input: Check the records and state EC50 for FC(F)(F)c1ccc2nnc(-c3c(Cl)cccc3Cl)n2c1
Output: > 25 µM

Input: Given the compound COc1cc2c(cc1OC)C(c1c(Cl)cccc1Cl)NC(=O)C2 (stereo not drawn) , write its reported EC50.
Output: > 25 µM

###

assay.system: Edg-3 (Homo sapiens, UniProt Q99500)
Sequence (Q99500 whole entry): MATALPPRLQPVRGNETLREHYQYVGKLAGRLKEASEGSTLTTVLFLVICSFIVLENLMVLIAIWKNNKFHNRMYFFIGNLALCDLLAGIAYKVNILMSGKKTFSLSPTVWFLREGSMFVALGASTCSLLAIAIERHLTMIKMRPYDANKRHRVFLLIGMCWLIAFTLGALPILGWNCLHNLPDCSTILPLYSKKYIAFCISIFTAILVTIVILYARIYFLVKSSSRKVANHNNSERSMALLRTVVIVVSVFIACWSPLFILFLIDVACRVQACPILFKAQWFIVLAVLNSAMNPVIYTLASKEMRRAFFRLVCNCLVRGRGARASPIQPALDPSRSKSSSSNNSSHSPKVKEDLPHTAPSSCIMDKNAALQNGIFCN
test.method.notes: Calcium mobilization assay (FLIPR), HTC cells expressing Edg 3
measurement.context: inhibition
pIC50: −log10 of the molar value.
reported.metric: pIC50

O=C(CC(=O)C(F)(F)F)Nc1cc(-c2ccc(Cl)c(Cl)c2)n[nH]1    < 4.70

Then there is this compound:
Input: Fill in reported pIC50 for this entry: O=C1NN=C(c2ccccc2)C(c2c[nH]c3ccccc23)N1 (centres unmarked)
Output: < 4.70

Source of measurements: patent US20050113283A1
